System: PC-3
protocol details: Antiproliferative activity against human PC3 cells incubated for 48 hrs by MTT assay
Assay type: functional, cell-based
test conditions: PC-3, 48 h
pIC50: −log10 of the molar value.
The entries below come with measured pIC50 values attached.
endpoint label: pIC50

> print(dat)
                            smiles.structure  endpoint.label  result
 1     Cc1cnc(Nc2ccc(F)cc2)nc1Nc1nc2ccccc2s1           pIC50  < 4.30
 2  COc1ccc2nc(Nc3nc(Nc4ccc(S(N)(=O)=O)cc4)ncc3C)sc2c1           pIC50  < 4.30
 3  COc1cccc(Nc2ncc(C)c(Nc3nc4ccccc4s3)n2)c1           pIC50  < 4.30
 4  Cc1cnc(Nc2ccc(S(N)(=O)=O)cc2)nc1Nc1nc2ccccc2s1           pIC50  < 4.30
 5  Cc1cnc(Nc2ccc(N3CCCCC3)cc2)nc1Nc1nc2ccccc2s1           pIC50  < 4.30
 6  Cc1ccc2nc(Nc3ccnc(Nc4ccc(S(C)(=O)=O)cc4)n3)sc2c1           pIC50  < 4.30
 7  COc1ccc2nc(Nc3nc(Nc4ccc(S(C)(=O)=O)cc4)ncc3F)sc2c1           pIC50    5.90
 8  NS(=O)(=O)c1ccc(Nc2ncc(F)c(Nc3nc4ccc(Cl)cc4s3)n2)cc1           pIC50    5.84
 9  Cc1cnc(Nc2ccc(S(N)(=O)=O)cc2)nc1Nc1nc2ccc(F)cc2s1           pIC50    5.16
10  Cc1cnc(Nc2ccc(C(C)C)cc2)nc1Nc1nc2ccccc2s1           pIC50  < 4.30
